study.target: human glucagon receptor (human, UniProt P47871)
assay.protocol: cell-based or functional assay
Starred links: 1 amine or outer side, 2 acyl side, 3 side chain; linkers in the order of their positions; H or OH if unused. Non-standard residues stand in square brackets, D forms with d. Groups on a side chain read outwards from the residue. Primed or numbered codes have the meaning given here. No end group written: not given here. *: point of attachment. C20 diacid = O=C(O)CCCCCCCCCCCCCCCCCCC(=O)*; Heptadecanoyl = CCCCCCCCCCCCCCCCC(=O)*; γGlu = O=C(O)[C@H](CCC(=O)[*:2])N[*:1]; Palmitoyl = CCCCCCCCCCCCCCCC(=O)*; αMeF = C[C@](N)(Cc1ccccc1)C(=O)O; Myristoyl = CCCCCCCCCCCCCC(=O)*; (PEG)2 = polyethylene glycol 2; PEG2′ = polyethylene glycol 2; αMeS = C[C@](N)(CO)C(=O)O; AEEA = NCCOCCOCC(=O)O; Aib = CC(C)(N)C(=O)O
outcome.measure: cAMP production, hGluc-R EC50 (pM)

- binder: "H[αMeS]QGS[αMeF]TSDVSKILDSK([PEG2′-PEG2′-γGlu-γGlu-Myristoyl])AAQD[αMeF]VQ[Aib]IINT-NH2 [Peptide 132]"
  outcome.measure: "cAMP production, hGluc-R EC50 (pM)"
  unit.of.measurement: "pM"
  reported.measurement: 34.3
- binder: "HSQGS[αMeF]TSDVSK[αMeF]LDSKAAQD[αMeF]VQ[Aib]LEAGG-NH2 (not fully specified (residue 17)) [Peptide 80]"
  outcome.measure: "cAMP production, hGluc-R EC50 (pM)"
  unit.of.measurement: "pM"
  reported.measurement: 9.18
- binder: "HSQGS[αMeF]TSDVSKILDSK([(PEG)2-(PEG)2-γGlu-γGlu-Myristoyl])AAQD[αMeF]VQ[Aib]IINT-NH2 [Peptide 119]"
  outcome.measure: "cAMP production, hGluc-R EC50 (pM)"
  unit.of.measurement: "pM"
  reported.measurement: 1.7
- binder: "H[Aib]QGS[αMeF]TSDVSKILDSK([(PEG)2-(PEG)2-γGlu-γGlu-Palmitoyl])AAQD[αMeF]VQ[Aib]IINT-NH2 [Peptide 125]"
  outcome.measure: "cAMP production, hGluc-R EC50 (pM)"
  unit.of.measurement: "pM"
  reported.measurement: 6.68
- binder: "H[Aib]HGS[αMeF]TSDVSK[αMeF]LDSK([AEEA-AEEA-γGlu-γGlu-C20 diacid])AAQD[αMeF]VQ[Aib]IANT-NH2 [Peptide 25]"
  outcome.measure: "cAMP production, hGluc-R EC50 (pM)"
  unit.of.measurement: "pM"
  reported.measurement: 1310
- binder: "H[Aib]QGS[αMeF]TSDVSKILDSK([(PEG)2-(PEG)2-γGlu-Myristoyl])AAQD[αMeF]VQ[Aib]IINT-NH2 [Peptide 129]"
  outcome.measure: "cAMP production, hGluc-R EC50 (pM)"
  unit.of.measurement: "pM"
  reported.measurement: 4.1
- binder: "HSQGS[αMeF]TSDVSK[αMeF]LDSK([PEG2′-PEG2′-γGlu-γGlu-Palmitoyl])AAQD[αMeF]VQ[Aib]IAN-NH2 (not fully specified) [Peptide 89]"
  outcome.measure: "cAMP production, hGluc-R EC50 (pM)"
  unit.of.measurement: "pM"
  reported.measurement: 15.3
- binder: "HSQGS[αMeF]TSDVSK[αMeF]LDSK([(PEG)2-(PEG)2-γGlu-γGlu-Heptadecanoyl])AAQD[αMeF]VQ[Aib]IAN-NH2 [Peptide 88]"
  outcome.measure: "cAMP production, hGluc-R EC50 (pM)"
  unit.of.measurement: "pM"
  reported.measurement: 6.47
